System: CLR/RAMP1 receptor (UniProt Q16602 23-461; O60894 27-148, limits assumed)
Sequence (Q16602 23-461 limits assumed, chain 1 of 2): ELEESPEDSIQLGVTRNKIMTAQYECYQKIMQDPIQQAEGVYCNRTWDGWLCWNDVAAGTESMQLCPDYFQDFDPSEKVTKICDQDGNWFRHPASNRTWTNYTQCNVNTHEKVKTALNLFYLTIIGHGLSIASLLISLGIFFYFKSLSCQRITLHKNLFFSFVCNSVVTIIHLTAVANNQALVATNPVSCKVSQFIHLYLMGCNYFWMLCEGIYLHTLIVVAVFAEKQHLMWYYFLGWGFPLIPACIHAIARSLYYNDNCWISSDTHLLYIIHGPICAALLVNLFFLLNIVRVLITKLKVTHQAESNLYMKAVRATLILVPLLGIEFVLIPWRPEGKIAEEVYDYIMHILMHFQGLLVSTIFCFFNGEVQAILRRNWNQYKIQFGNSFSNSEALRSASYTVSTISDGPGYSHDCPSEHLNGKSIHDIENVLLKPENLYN
Sequence (O60894 27-148 limits assumed, chain 2 of 2): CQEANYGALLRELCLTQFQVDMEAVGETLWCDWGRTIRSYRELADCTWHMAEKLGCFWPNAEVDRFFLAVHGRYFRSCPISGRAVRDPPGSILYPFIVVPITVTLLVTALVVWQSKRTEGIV
Protocol details: cell-based or functional assay
Square brackets hold non-standard residues; d marks the D form. Ends that are not written are not given here. * marks the point of attachment. Palmitoyl = CCCCCCCCCCCCCCCC(=O)*; AEEA = NCCOCCOCC(=O)O
Each entry below carries its recorded CLR/RAMP1 Max Activity.

Binder	Result
[AEEA]K(Palmitoyl)GCRFGTCTVQKLAHQIYQFTDKDKQDSAPVDPSSPHSY-NH2 (ends and bridges not checked) [SEQ ID NO: 51]	65 % of positive control
KGCRFGTCTVQKLAHQIYQFTDKDKDNVAPRSKISPQGY (Ace-PEG3- at N-terminus; K([19-carboxy-nonadecanoyl]-PEG3-isoGlu); -NH2) [SEQ ID NO: 156]	88 % of positive control
[AEEA]K(Palmitoyl)CRFGTCTVQKLAHQIYQFTDKDKDNSAPVDPSSPHSY-NH2 (ends and bridges not checked) [SEQ ID NO: 43]	39 % of positive control
miniPEG-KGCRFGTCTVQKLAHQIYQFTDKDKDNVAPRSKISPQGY-NH2 (ends and bridges not checked; also: K(PAL), position not given here) [SEQ ID NO: 69]	70 % of positive control
Ac-FGCRFGTCTVQKLAHQIYQFTDKDKDNVAPRSKISPQGY-NH2 (ends and bridges not checked) [SEQ ID NO: 53 (human ADM)]	69 % of positive control

Form field CLR/RAMP1 Max Activity, entry [AEEA]K(Palmitoyl)GCRFGTCTVQKLAHLWQLMGPAGRQDSAPVDPSSPHSY-NH2 (not fully specified; ends and bridges not checked) [SEQ ID NO: 62] : 2 % of positive control
